Source of measurements: ChEMBL document CHEMBL3739366

# TEST SYSTEM: Voltage-gated inwardly rectifying potassium channel KCNH2 (Homo sapiens)
# Sequence (Q12809 whole entry): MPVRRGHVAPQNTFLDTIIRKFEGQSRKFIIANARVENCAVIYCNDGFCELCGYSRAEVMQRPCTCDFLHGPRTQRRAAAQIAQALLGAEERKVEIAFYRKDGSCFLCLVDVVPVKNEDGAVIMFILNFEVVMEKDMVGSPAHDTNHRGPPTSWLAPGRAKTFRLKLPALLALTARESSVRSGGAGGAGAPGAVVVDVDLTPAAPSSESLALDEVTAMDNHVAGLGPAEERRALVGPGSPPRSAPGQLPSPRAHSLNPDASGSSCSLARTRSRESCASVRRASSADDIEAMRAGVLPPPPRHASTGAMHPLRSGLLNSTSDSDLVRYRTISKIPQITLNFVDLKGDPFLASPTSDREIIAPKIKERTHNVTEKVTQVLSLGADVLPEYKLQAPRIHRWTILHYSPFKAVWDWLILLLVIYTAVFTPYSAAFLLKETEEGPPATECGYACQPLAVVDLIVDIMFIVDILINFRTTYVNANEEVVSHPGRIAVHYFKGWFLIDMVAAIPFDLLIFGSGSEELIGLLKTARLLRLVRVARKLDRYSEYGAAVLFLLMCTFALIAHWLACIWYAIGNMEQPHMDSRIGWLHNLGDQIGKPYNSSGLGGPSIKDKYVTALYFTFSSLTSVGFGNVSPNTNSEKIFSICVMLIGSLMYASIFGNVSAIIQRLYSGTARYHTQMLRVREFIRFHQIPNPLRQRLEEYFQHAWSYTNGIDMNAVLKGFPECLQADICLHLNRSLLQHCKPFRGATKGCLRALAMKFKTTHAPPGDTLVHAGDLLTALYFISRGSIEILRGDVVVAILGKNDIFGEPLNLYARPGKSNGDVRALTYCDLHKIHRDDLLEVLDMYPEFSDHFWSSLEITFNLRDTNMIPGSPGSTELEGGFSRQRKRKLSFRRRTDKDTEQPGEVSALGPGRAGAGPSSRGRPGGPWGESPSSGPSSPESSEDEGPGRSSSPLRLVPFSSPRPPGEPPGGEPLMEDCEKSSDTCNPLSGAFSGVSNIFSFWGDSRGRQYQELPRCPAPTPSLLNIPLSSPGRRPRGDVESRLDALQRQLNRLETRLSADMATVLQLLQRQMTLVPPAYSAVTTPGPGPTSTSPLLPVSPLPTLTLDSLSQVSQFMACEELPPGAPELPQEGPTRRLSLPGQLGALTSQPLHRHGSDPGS
# EXPERIMENT NOTES: Inhibition of human ERG
REPORTED ENDPOINT: IC50

Measured IC50 for this entry COc1cc(N2C(=O)N(Cc3c(F)cc(F)cc3F)c3ncccc3S2(=O)=O)cnc1OC on Voltage-gated inwardly rectifying potassium channel KCNH2 (Homo sapiens): > 10 µM

====

# EXPERIMENT NOTES: Plasma protein binding in mouse
# Format: ADME, cell-free
# MEASUREMENT PARAMETERS: read-out: PPB (converted)
REPORTED ENDPOINT: fraction unbound

For COc1cc(N2C(=O)N(Cc3c(F)cc(F)cc3F)c3ncccc3S2(=O)=O)cnc1OC the molecule record lists fraction unbound as 0.008

====

As shown below, each of these compounds has a reported bioavailability value.
# EXPERIMENT NOTES: Oral bioavailability in Sprague-Dawley rat at 2 mg/kg
# Assay type: ADME, organism-based
# MEASUREMENT PARAMETERS: in vivo
Please respond with the number in % and leave the unit unwritten.

For COc1ccc(N2C(=O)N(Cc3c(F)cc(F)cc3F)c3ncccc3S2(=O)=O)nc1OC the compound record lists bioavailability as 34

For COc1cc(N2C(=O)N(Cc3c(F)cc(F)cc3F)c3ccccc3S2(=O)=O)cnc1OC the compound record lists bioavailability as 29

For COc1cc(N2C(=O)N(Cc3c(F)cc(F)cc3Cl)c3ccccc3S2(=O)=O)cnc1OC the compound record lists bioavailability as 29

For COc1cc(N2C(=O)N(Cc3c(F)cc(F)cc3F)c3ncccc3S2(=O)=O)cnc1OC the compound record lists bioavailability as 66

For COc1cc(N2C(=O)N(Cc3c(F)cc(F)cc3F)c3ccccc3S2(=O)=O)cc(OC)n1 the compound record lists bioavailability as 36

====

# EXPERIMENT NOTES: Plasma protein binding in dog
# Type: ADME, cell-free, Canis lupus familiaris
# MEASUREMENT PARAMETERS: read-out: PPB (converted)
REPORTED ENDPOINT: fraction unbound
// no unit string in output, number only

For COc1cc(N2C(=O)N(Cc3c(F)cc(F)cc3F)c3ncccc3S2(=O)=O)cnc1OC the compound record lists fraction unbound as 0.019

====

# EXPERIMENT NOTES: Bidirectional apparent permeability of the compound across human Caco2 cells
# Format: ADME, cell-based
# MEASUREMENT PARAMETERS: Caco-2, read-out: permeability
REPORTED ENDPOINT: Papp (×10⁻⁶ cm/s)
Please respond with the number in ×10⁻⁶ cm/s and leave the unit unwritten.

For COc1cc(N2C(=O)N(Cc3c(F)cc(F)cc3F)c3ncccc3S2(=O)=O)cnc1OC the molecule record lists Papp as 52

====

Form: system (Orexin/Hypocretin receptor type 1 (Homo sapiens, UniProt O43613)), quantity (Ki), values below.
Please respond with the number in nM and leave the unit unwritten.

Here is how some compounds turned out for Ki.
COc1cc(F)c(CN2C(=O)N(c3cnc(OC)c(OC)c3)S(=O)(=O)c3ccccc32)c(F)c1 :: 2.51
COc1cc(F)c(CN2C(=O)N(c3ccc(OC)c(OC)c3)S(=O)(=O)c3ccccc32)c(F)c1 :: 2
CNc1cc(N2C(=O)N(Cc3c(F)cc(OC)cc3F)c3ncccc3S2(=O)=O)cnc1OC :: 1.26
COc1ccc(N2C(=O)N(Cc3c(F)cc(F)cc3F)c3ccccc3S2(=O)=O)cc1OC :: 50.1
COc1ccc(N2C(=O)N(Cc3c(F)cc(F)cc3Cl)c3ccccc3S2(=O)=O)cc1OC :: 25.1
COc1ccc(N2C(=O)N(Cc3ccccc3F)c3ccccc3S2(=O)=O)cc1OC :: 316
COc1cc(N2C(=O)N(Cc3c(F)cc(F)cc3F)c3ccccc3S2(=O)=O)ccn1 :: 398

Measured Ki for this entry COc1ccc(N2C(=O)N(Cc3c(F)cc(C)cc3Cl)c3ccccc3S2(=O)=O)cc1OC on Orexin/Hypocretin receptor type 1 (Homo sapiens, UniProt O43613): 6.31

====

# Tested on: Canis familiaris
# EXPERIMENT NOTES: AUC (infinity) in beagle dog at 2 mg/kg, po
# Assay type: ADME, organism-based, Canis lupus familiaris
# Design: dose 2 mg/kg, route oral, time infinity
# MEASUREMENT PARAMETERS: in vivo
REPORTED ENDPOINT: AUC (ng·h/mL)
Please respond with the number in ng·h/mL and leave the unit unwritten.

Measured AUC for this entry COc1cc(N2C(=O)N(Cc3c(F)cc(F)cc3F)c3ccccc3S2(=O)=O)cnc1OC on Canis familiaris: 6960

====

# EXPERIMENT NOTES: Plasma protein binding in human
# Assay type: ADME, cell-free
# MEASUREMENT PARAMETERS: read-out: PPB (converted)
REPORTED ENDPOINT: fraction unbound
// no unit string in output, number only

For COc1cc(N2C(=O)N(Cc3c(F)cc(F)cc3F)c3ncccc3S2(=O)=O)cnc1OC the compound record lists fraction unbound as 0.007

====

# TEST SYSTEM: Orexin/Hypocretin receptor type 1 (Homo sapiens, UniProt O43613)
# Sequence (O43613 whole entry): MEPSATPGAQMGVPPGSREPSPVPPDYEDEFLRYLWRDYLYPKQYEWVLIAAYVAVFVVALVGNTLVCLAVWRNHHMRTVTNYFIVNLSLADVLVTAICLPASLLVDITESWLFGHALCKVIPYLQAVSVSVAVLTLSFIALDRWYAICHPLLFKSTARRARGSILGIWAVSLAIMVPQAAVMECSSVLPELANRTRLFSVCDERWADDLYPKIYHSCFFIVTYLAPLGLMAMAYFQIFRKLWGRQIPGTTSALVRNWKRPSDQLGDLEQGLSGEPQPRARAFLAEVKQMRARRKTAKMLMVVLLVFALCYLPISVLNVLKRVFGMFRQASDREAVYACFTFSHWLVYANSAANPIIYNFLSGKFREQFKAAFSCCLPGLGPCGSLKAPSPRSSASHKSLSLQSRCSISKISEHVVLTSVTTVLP
REPORTED ENDPOINT: Ki (nM)
Please respond with the number in nM and leave the unit unwritten.

COc1ccc(N2C(=O)N(Cc3c(F)cc(F)cc3F)c3ncccc3S2(=O)=O)nc1OC :: 25.1
COc1ccc(N2C(=O)N(Cc3c(F)cc(F)cc3OC)c3ccccc3S2(=O)=O)cc1OC :: 63.1
COc1ccc(N2C(=O)N(Cc3ccc(Cl)cc3F)c3ccccc3S2(=O)=O)cc1OC :: 63.1
COc1cc(F)c(CN2C(=O)N(c3cc(OC)nc(OC)c3)S(=O)(=O)c3ccccc32)c(F)c1 :: 1

Turning to the following compound.
Measured Ki for this entry COc1ccc(N2C(=O)N(Cc3c(F)cccc3Cl)c3ccccc3S2(=O)=O)cc1OC on Orexin/Hypocretin receptor type 1 (Homo sapiens, UniProt O43613): 7.94

====

# EXPERIMENT NOTES: Half life in beagle dog at 2 mg/kg, po
# Type: ADME, organism-based, Canis lupus familiaris
# MEASUREMENT PARAMETERS: in vivo
REPORTED ENDPOINT: half-life (h)
Please respond with the number in h and leave the unit unwritten.

For COc1cc(N2C(=O)N(Cc3c(F)cc(F)cc3F)c3ccccc3S2(=O)=O)cnc1OC the compound record lists half-life as 10.6

====

# EXPERIMENT NOTES: Half life in rat hepatocytes
# Format: ADME, cell-based, Hepatocyte
REPORTED ENDPOINT: half-life

For COc1cc(N2C(=O)N(Cc3c(F)cc(F)cc3F)c3ncccc3S2(=O)=O)cnc1OC the compound record lists half-life as > 1.83 h

====

# System: Canis familiaris
# EXPERIMENT NOTES: AUC (infinity) in beagle dog at 1 mg/kg, po
# Type: ADME, organism-based, Canis lupus familiaris
# Parameters: dose 1 mg/kg, route oral, time infinity
# MEASUREMENT PARAMETERS: in vivo
REPORTED ENDPOINT: AUC (ng·h/mL)
Please respond with the number in ng·h/mL and leave the unit unwritten.

For COc1cc(N2C(=O)N(Cc3c(F)cc(F)cc3F)c3ncccc3S2(=O)=O)cnc1OC the compound record lists AUC as 2440

====

# EXPERIMENT NOTES: Ratio of drug level in brain to plasma in Sprague-Dawley rat at 1 mg/kg, iv after 0.5 hrs
# Assay type: ADME, organism-based
# MEASUREMENT PARAMETERS: read-out: BPR
Decide by Kp at 0.5 h: equal to or exceeding 0.8 means yes, less means no.

COc1cc(N2C(=O)N(Cc3c(F)cc(F)cc3F)c3ccccc3S2(=O)=O)cc(OC)n1 :: yes
COc1cc(N2C(=O)N(Cc3c(F)cc(F)cc3F)c3ncccc3S2(=O)=O)cnc1OC :: no
COc1cc(N2C(=O)N(Cc3c(F)cc(F)cc3F)c3ccccc3S2(=O)=O)cnc1OC :: no

// next entry
Data request: Record COc1ccc(N2C(=O)N(Cc3c(F)cc(F)cc3F)c3ncccc3S2(=O)=O)nc1OC ; criterion: Kp at 0.5 h no lower than 0.8. Met?
Data returned: yes

====

# EXPERIMENT NOTES: Tmax in Sprague-Dawley rat at 2 mg/kg, po
# Assay type: ADME, organism-based
# MEASUREMENT PARAMETERS: in vivo
As shown below, each of these molecules has a reported Tmax value.
Please respond with the number in min and leave the unit unwritten.

Here is how some molecules turned out for Tmax.
COc1cc(N2C(=O)N(Cc3c(F)cc(F)cc3F)c3ncccc3S2(=O)=O)cnc1OC :: 30
COc1cc(N2C(=O)N(Cc3c(F)cc(F)cc3F)c3ccccc3S2(=O)=O)cnc1OC :: 90
COc1cc(N2C(=O)N(Cc3c(F)cc(F)cc3Cl)c3ccccc3S2(=O)=O)cnc1OC :: 48
COc1cc(N2C(=O)N(Cc3c(F)cc(F)cc3F)c3ccccc3S2(=O)=O)cc(OC)n1 :: 24

Turning to the following molecule.
For COc1ccc(N2C(=O)N(Cc3c(F)cc(F)cc3F)c3ncccc3S2(=O)=O)nc1OC the molecule record lists Tmax as 30
